Assay: AUC(0 to 6 hrs) in adult fed Sprague-Dawley rat at 30 mg/kg, po administered as water solution by HPLC-tandem mass spectrometry
Type: ADME, organism-based
Set-up: time < 6 hr, dose 30 mg/kg, route oral
Conditions: plasma
experimental readout: AUC(0-t) at 6 h (ng·h/mL)

compound: CCOC(=O)C1=C[C@@H](OC(CC)CC)[C@H](NC(C)=O)[C@@H](N)C1
measurement: 2200

compound: CCC(CC)O[C@@H]1C=C(C(=O)O)C[C@H](N)[C@H]1NC(C)=O [OSELTAMIVIR CARBOXYLATE]
measurement: 3540

###

Test: AUC(0 to infinity) in adult fed Sprague-Dawley rat at 30 mg/kg, po administered as solution in bovine milk by HPLC-tandem mass spectrometry
Format: ADME, organism-based
Parameters: time infinity, dose 30 mg/kg, route oral
Conditions: in vivo
Overview of recorded AUC(0-inf) for various compounds

compound: CCC(CC)O[C@@H]1C=C(C(=O)O)C[C@H](N)[C@H]1NC(C)=O [OSELTAMIVIR CARBOXYLATE]
AUC(0-inf): 6340 ng·h/mL

compound: CCOC(=O)C1=C[C@@H](OC(CC)CC)[C@H](NC(C)=O)[C@@H](N)C1
AUC(0-inf): 2810 ng·h/mL
